Test system: UACC-257 melanoma
Measurement Description: NCI-60 one-dose screen, 48 h (100 = growth as untreated, 0 = no growth, -100 = all killed)
Run Conditions: 10 µM unless noted
The panel holds about 83,000 compounds, 20% with a hit somewhere; the sample as a whole holds those more often.
Tag: criterion met if measured growth is not below 40%, criterion not met if it is.

stdin: Exam item: decide whether the reported growth for "C#Cc1cccc(Nc2nc(Cl)nc3cc(NC(=O)CF)ccc23)c1" is at least 40%.
stdout: criterion met

stdin: Exam item: decide whether the reported growth for "CN(C)c1ccc(C=C2C(=O)NC(=O)NC2=O)cc1" is at least 40%.
stdout: criterion not met

stdin: Exam item: decide whether the reported growth for "O=NN1CCCCC1" is at least 40%.
stdout: criterion met

stdin: Exam item: decide whether the reported growth for CCN1C(=O)NC(=O)C(C)(N2C(=O)c3c(F)c(F)c(F)c(F)c3C2=O)C1=O (stereo unspecified) is at least 40%.
stdout: criterion not met

stdin: Exam item: decide whether the reported growth for "Cc1ccc(S(=O)(=O)n2cc([C@@]3(O)C[C@H](CSC#N)OC3=O)c3ccccc32)cc1" is at least 40%.
stdout: criterion met

stdin: Exam item: decide whether the reported growth for "O=[N+]([O-])c1ccc2scc3c4ccccc4nc-3c2c1" is at least 40%.
stdout: criterion not met

###

Test system: NCI-H460 lung
Measurement Description: NCI-60 one-dose screen, 48 h (100 = growth as untreated, 0 = no growth, -100 = all killed)
Run Conditions: 10 µM unless noted
About 83,000 compounds went through this panel and 20% of them were active in at least one assay; those are over-represented in the sample as a whole.
Task for the reader: assign each of the following compounds its reported growth.
Note: unit % is implicit; provide only the numeric part.

stdin: Input "COc1ccc2c(c1)c(-c1nc(-c3cn(C)c4ncccc34)cs1)cn2CCCCN1CCOCC1" , output reported growth.
stdout: -31.9

stdin: Input COC12CC3C4=CCOC5CC(=O)N6c7ccccc7C1(CCN2C4)C6C53 (centres undefined) , output reported growth.
stdout: 109

stdin: Input CC1OC(=O)C(C(C)C)NC(=O)C(C(C)C)OC(=O)C(C(C)C)NC(=O)C(C)OC(=O)C(C(C)C)NC(=O)C(C(C)C)OC(=O)C(C(C)C)NC(=O)C(C)OC(=O)C(C(C)C)NC(=O)C(C(C)C)OC(=O)C(C(C)C)NC1=O (centres undefined) , output reported growth.
stdout: -11.9

stdin: Input "Oc1cc(Cl)ccc1Oc1ccc(Cl)cc1Cl" , output reported growth.
stdout: 3.2

stdin: Input "C=C[Se]CC(=O)/C=C/c1ccccc1" , output reported growth.
stdout: 12.8

stdin: Input "CC[C@H](C)[C@H](NC(=O)[C@H]1CCCCN1C)C(=O)N(C)[C@H](C[C@@H](OC(C)=O)c1cccc(C(=O)N[C@@H](Cc2ccccc2)C[C@H](C)C(=O)OC)n1)C(C)C" , output reported growth.
stdout: 7.06

stdin: Input CC12CCC3C4CCC(=O)C=C4CCC3C1CC1CC(=O)OC12 (centres undefined) , output reported growth.
stdout: 104

stdin: Input "O=[N+]([O-])c1cc(Cl)c(Cl)c([N+](=O)[O-])c1Cl" , output reported growth.
stdout: 99.7

stdin: Input "COC(=O)CCP(CCC(=O)OC)c1ccccc1" , output reported growth.
stdout: 111

stdin: Input "CNC(=O)CCl" , output reported growth.
stdout: 107

stdin: Input "CC(C)CCC1C(=O)NC(=O)NC1=O" , output reported growth.
stdout: 97.7

stdin: Input "c1ccc2c(c1)O[As](O[As]1Oc3ccccc3O1)O2" , output reported growth.
stdout: 54.8

stdin: Input "C/C(=C\c1ccn(-c2ccc(N)c(C(F)(F)F)c2)n1)[C@@H]1C[C@@H]2O[C@]2(C)CCC[C@H](C)[C@H](O)[C@@H](C)C(=O)C(C)(C)[C@@H](O)CC(=O)O1" , output reported growth.
stdout: 12.7

stdin: Input COC(=O)C12C3C4C1C1C2C3C41NC(=O)c1csc([C@@H](C[C@H](C(C)C)N(C)C(=O)[C@@H](NC(=O)[C@H]2CCCCN2C)C2CC2)OC(C)=O)n1 (some centres undefined) , output reported growth.
stdout: 7.89

stdin: Input "C[C@@H]1C/C=C\C(=O)O[C@H](/C=C/C#C/C=C/C(C)(C)[C@@H](O)c2cccc(O)c2Br)[C@@H](C)/C=C/[C@H](C)C[C@H](OC(N)=O)C1" , output reported growth.
stdout: 17.1

stdin: Input "OCCNC1CCCCC1" , output reported growth.
stdout: 105

stdin: Input "COc1ccn(C)c(=O)c1C#N" , output reported growth.
stdout: 108

stdin: Input "c1ccc2c(c1)sc1ccccc12" , output reported growth.
stdout: 109

stdin: Input CCOC(=O)c1cncn1C(C)c1ccccc1 (centres undefined) , output reported growth.
stdout: 118
